- System: HL-60
- PROTOCOL SUMMARY: NCI tumour cell line growth inhibition, 48 h
Calls of active or inactive are those of the source. Cut-off read from the data, not from the text of the source: active = GI50 up to about 1.1 µM and inactive = higher.
Mark one answer only. Choices: Y (active), N (inactive)

Use the examples below as a reference point.
MOLECULE | CLASSIFICATION
CSC1(C)CC2C(CC1N1CCOCC1)C2(C)C (configuration not stated) | N
COC(=O)c1ccccc1/C=C1\Cc2ccc(C)c(C)c2C1=O | N
Cc1ccccc1C(=O)Oc1ccc(O)cc1 | N
CCNC1=C(NC(=O)CCl)C(=O)c2ccccc2C1=O | N
Cc1cccc(-n2c(C)nc3ccc(NC(=S)Nc4ccccc4)cc3c2=O)c1 | N

# lookup: test call for O=C(O)CC1OCC=C2CN3CCC45c6ccccc6NC4C1C2CC35 (configuration not stated)
N

Please let me know the test result on file for O=C(O)[C@@H]1C[C@@H](O)CN1 .
N

Returns: the outcome recorded for COc1cccc(-c2cc(=O)c3ccc(C)nc3[nH]2)c1 in this assay.
Y

The reported numbers originate from ChEMBL document CHEMBL1201862.
